Hello, the source for this data is patent US8691837B2, in case you need it.

Structures can show the parent of a compound that is named as a salt.
Exercise: state measured melting point for each of the compounds provided.

# melting point of CCOCc1nc2c(N)nc3ccccc3c2n1CCCC(C)=O [Example 14] = 173 to 175 °C

The measured melting point associated with CCOCc1nc2c(N)nc3ccccc3c2n1CC(=O)CC [Example 37] reads 187 to 188 °C

Reported melting point for CCCc1nc2c(N)nc3ccccc3c2n1CCCC(=O)N(C)OC [Example 20] was 163 to 165 °C

The compound listed as CCCc1nc2c(N)nc3ccccc3c2n1CC(OCC)OCC [Example 29] has a reported melting point of 148 to 150 °C

Record CCCc1nc2c(N)nc3ccccc3c2n1CCCC(C)=O [Example 13] , field melting point: 176 to 177 °C

compound CCCc1nc2c(N)nc3ccccc3c2n1CCCC(=O)CC(C)C [Example 17] , melting point observed: 136 to 138 °C

Form: compound = CCCc1nc2c(N)nc3ccccc3c2n1CC(C)(C)CC(C)=O [Example 25] ; melting point = 178 to 180 °C

GET /value?item= Cc1nc2c(N)nc3ccccc3c2n1CC(C)(C)CC1(C)OCCO1 [Example 22] &field=melting point returns 209 to 211 °C

Lab note: CCCc1nc2c(N)nc3ccccc3c2n1CCC(=O)OCC [Example 26] gave melting point of 156 to 157 °C

Reported melting point for Cc1nc2c(N)nc3ccccc3c2n1CCCC1(C)OCCO1 [Example 6] was 193 to 195 °C

// field: melting point; key: CCOCc1nc2c(N)nc3ccccc3c2n1CCCC(=O)OCC [Example 34] ; value = 129 to 131 °C

The recorded melting point for CCCc1nc2c(N)nc3ccccc3c2n1CCCC1(C)OCCO1 [Example 8] is 184 to 186 °C

Per the record, CCc1nc2c(N)nc3ccccc3c2n1CCCC1(C)OCCO1 [Example 7] has melting point of 195 to 196.5 °C

// recorded melting point for CCCCCCC(=O)CCCn1c(CCC)nc2c(N)nc3ccccc3c21 [Example 18] : 111 to 113 °C

Kindly note the recorded melting point for CC(=O)CCCn1c(C)nc2c(N)nc3ccccc3c21 [Example 11] , which is 194 to 196 °C

# melting point of CC(=O)CC(C)(C)Cn1cnc2c(N)nc3ccccc3c21 [Example 32] = 214 to 216 °C

For record CCCc1nc2c(N)nc3ccccc3c2n1CC(C)(C)CC1(C)OCCO1 [Example 23] the listed melting point is 186 to 188 °C

Lab note: CCCCc1nc2c(N)nc3ccccc3c2n1CCCC1(C)OCCO1 [Example 9] gave melting point of 169 to 171.5 °C

The recorded melting point for CCOCc1nc2c(N)nc3ccccc3c2n1CCCC(=O)N(C)OC [Example 35] is 163 to 165 °C

// field: melting point; key: CCCc1nc2c(N)nc3ccccc3c2n1CCCCCC(=O)N(C)OC [Example 19] ; value = 134 to 135 °C

Lab book: melting point of CCCc1nc2c(N)nc(C)c(C)c2n1CCCC(C)=O [Example 33] noted as 148.5 to 149.5 °C

Short answer for CCCc1nc2c(N)nc3ccccc3c2n1CCC(OCC)OCC [Example 30] : melting point was 148 to 150 °C

For record CC(C)(Cn1cnc2c(N)nc3ccccc3c21)CC1(C)OCCO1 [Example 31] the listed melting point is 153 to 155 °C

Briefly, melting point measured for CCCc1nc2c(N)nc3ccccc3c2n1CCCCCCCCCCCC(=O)N(C)OC (as salt: hydrochloride) [Example 21] : 156 to 158 °C

# melting point of CCCCc1nc2c(N)nc3ccccc3c2n1CCCCCC(=O)c1ccccc1 [Example 4] = 149 to 151 °C

Reported melting point ( CCCc1nc2c(N)nc3ccccc3c2n1CCCC(=O)OCC [Example 27] ) = 154 to 156 °C
